Assignment: determine reported TC for the given compounds.
organism: Rattus norvegicus; assay: Open TG-GATES - Regimen: Daily Repeat; assay type: toxicity, organism-based, Sprague-Dawley; design: regimen Daily Repeat, gender Male, age 6 weeks; conditions: in vivo, po, 1000 mg/kg, […], tissue Plasma, route gavage, dose level High, time 28 day
Give bare numbers, in mg/dL.

[
  {
    "compound": "COC(=O)C1=C(C)NC(C)=C(C(=O)OC)C1c1ccccc1[N+](=O)[O-] [NIFEDIPINE]",
    "TC (mg/dL)": 73.6
  }
]

Please look at the following compound next.
Item: O=C(OC[C@H]1O[C@@H](OC(=O)c2cc(O)c(O)c(OC(=O)c3cc(O)c(O)c(O)c3)c2)[C@H](OC(=O)c2cc(O)c(O)c(OC(=O)c3cc(O)c(O)c(O)c3)c2)[C@@H](OC(=O)c2cc(O)c(O)c(OC(=O)c3cc(O)c(O)c(O)c3)c2)[C@@H]1OC(=O)c1cc(O)c(O)c(OC(=O)c2cc(O)c(O)c(O)c2)c1)c1cc(O)c(O)c(OC(=O)c2cc(O)c(O)c(O)c2)c1 [TANNIC ACID] | TC: 73.4

Values were extracted from ChEMBL document CHEMBL3885861.
